Target sequence: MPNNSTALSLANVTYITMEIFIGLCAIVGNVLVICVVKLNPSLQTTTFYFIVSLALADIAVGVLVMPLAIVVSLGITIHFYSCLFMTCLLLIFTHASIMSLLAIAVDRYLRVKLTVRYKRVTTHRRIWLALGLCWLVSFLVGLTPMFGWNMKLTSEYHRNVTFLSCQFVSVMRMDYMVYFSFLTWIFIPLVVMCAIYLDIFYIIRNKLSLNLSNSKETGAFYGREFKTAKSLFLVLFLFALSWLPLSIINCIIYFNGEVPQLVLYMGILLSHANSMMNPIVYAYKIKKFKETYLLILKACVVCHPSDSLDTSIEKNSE
Recorded Ki for molecules tested on the protein given by its sequence, drawn from a number of studies.
Measurement label: Ki (nM)

[[record]]
molecule = "CCOC(=O)c1c(NC(=O)c2sc(Nc3ccc(C)cc3)nc2N(C)C)sc(C(=O)OC)c1C"
unit_descriptor = "nM"
qualifying_sign = "="
experimental_result = 3910

[[record]]
molecule = "Nc1nc(NCCCc2ccccc2)nc2sc(-c3ccco3)nc12"
unit_descriptor = "nM"
qualifying_sign = "="
experimental_result = 1140

[[record]]
molecule = "CCNC(=O)[C@H]1O[C@@H](n2cnc3c(NC(=O)Nc4ccc(S(N)(=O)=O)cc4)ncnc32)C(O)C1O (single isomer, unassigned)"
unit_descriptor = "nM"
qualifying_sign = "="
experimental_result = 14.8

[[record]]
molecule = "Nc1nc(-c2ccc(NC(=O)c3ccc(C(=O)O)cc3)cc2)cn2c(=O)n(-c3ccccc3)nc12"
unit_descriptor = "nM"
qualifying_sign = ">"
experimental_result = 30000

[[record]]
molecule = "O=c1n(-c2ccccc2)nc2c(NS(=O)(=O)c3ccccc3)nc3c([N+](=O)[O-])cccc3n12"
unit_descriptor = "nM"
qualifying_sign = "="
experimental_result = 100

[[record]]
molecule = "CCCCC(CC)CNc1ncc(C(=O)OCC)c2nc(-c3ccco3)nn12 (centres undefined)"
unit_descriptor = "nM"
qualifying_sign = "="
experimental_result = 39.3

[[record]]
molecule = "Nc1nc2nn(CCc3ccccc3)cc2c2nc(-c3ccc(Cl)cc3)nn12"
unit_descriptor = "nM"
qualifying_sign = "="
experimental_result = 79.7

[[record]]
molecule = "COc1ccc(-n2nc3c(N)nc(-c4ccccc4)cn3c2=O)cc1"
unit_descriptor = "nM"
qualifying_sign = "="
experimental_result = 117

[[record]]
molecule = "Cn1cc2c(nc(NC3CCC3)n3nc(-c4ccco4)nc23)n1"
unit_descriptor = "nM"
qualifying_sign = "="
experimental_result = 17.6


###

pKi: −log10 of the molar value.
Recorded pKi for molecules tested on Adenosine receptor A3 (Homo sapiens), drawn from a number of studies.
Returns criterion met if the recorded pKi is greater than or equal to 7, and criterion not met otherwise.

[[record]]
entry_smiles = "CC(C)Cn1c(Br)nc2c(N)ncnc21"
label_class = "criterion not met"

[[record]]
entry_smiles = "C#CCn1c(=O)c2c(nc3cc(OC)ccn32)n(Cc2ccccc2)c1=O"
label_class = "criterion met"

[[record]]
entry_smiles = "CCCn1c(=O)c2[nH]c(C34CCC(CCC(=O)O)(CC3)CC4)nc2n(CCC)c1=O"
label_class = "criterion not met"

[[record]]
entry_smiles = "CN(C)c1nc(NC(=O)C(c2ccccc2)c2ccccc2)n2nc(-c3ccco3)nc2n1"
label_class = "criterion not met"

[[record]]
entry_smiles = "CCCn1c(=O)c2[nH]c(-c3cnn(Cc4nc(-c5ccc(C(F)(F)F)cc5)no4)c3)nc2n(CCC)c1=O"
label_class = "criterion not met"

[[record]]
entry_smiles = "OC[C@@H]1CCCN1c1ncnc2sc(Nc3cccc(Br)c3)nc12"
label_class = "criterion not met"

[[record]]
entry_smiles = "Cc1ccc(-n2c(-c3sc(NC(=O)c4ccco4)nc3-c3ccccc3)nc3ccccc3c2=O)cc1"
label_class = "criterion met"

[[record]]
entry_smiles = "CCOC(=O)c1nc(N)nc2nn(CC(C)(C)C)cc12"
label_class = "criterion not met"

[[record]]
entry_smiles = "CCNc1nc(I)nc2c1ncn2[C@H]1[C@H](O)[C@H](O)[C@]2(C(=O)NC)C[C@H]12"
label_class = "criterion met"

[[record]]
entry_smiles = "Cc1cccc(OCC(=O)Nc2nc(-c3ccccc3)n[nH]2)c1"
label_class = "criterion not met"

[[record]]
entry_smiles = "Nc1nc(-c2ccc(NC(=O)CCC(=O)O)cc2)cn2c(=O)n(-c3ccccc3)nc12"
label_class = "criterion not met"

[[record]]
entry_smiles = "Cl.Cn1cc2c(nc(NC(=O)NC3CCN(CC4CCCCC4)CC3)n3nc(-c4ccco4)nc23)n1"
label_class = "criterion met"

[[record]]
entry_smiles = "CNC(=O)[C@@]12C[C@@H]1[C@@H](n1cnc3c(NCCc4ccc(O)c(OC)c4)nc(C#Cc4ccc(Cl)s4)nc31)[C@H](O)[C@@H]2O"
label_class = "criterion met"

[[record]]
entry_smiles = "COCCNc1nc2ccccc2n2nc(-c3ccco3)nc12"
label_class = "criterion not met"

[[record]]
entry_smiles = "CNc1ncnc2c1ncn2[C@@H]1S[C@H](C(=O)NCc2cccc(I)c2)[C@@H](O)[C@H]1O"
label_class = "criterion met"

[[record]]
entry_smiles = "O=C(Nc1ccc(Br)cc1)c1[nH]c(=O)nc2ccccc12"
label_class = "criterion met"

[[record]]
entry_smiles = "Nc1cc([N+](=O)[O-])nc2c1ncn2[C@@H]1O[C@H](CO)[C@@H](O)[C@H]1O"
label_class = "criterion not met"

[[record]]
entry_smiles = "OC[C@@]12C[C@@H]1[C@@H](n1cnc3c(NCc4cccc(I)c4)ncnc31)[C@H](O)[C@@H]2O"
label_class = "criterion met"

[[record]]
entry_smiles = "COc1ccn2c(c1)nc1c2c(=O)n(C)c(=O)n1Cc1ccccc1"
label_class = "criterion met"

[[record]]
entry_smiles = "Oc1nc2ccccc2c2cc(-c3ccc(Cl)cc3)nn12"
label_class = "criterion met"

[[record]]
entry_smiles = "COc1ccc(C(=O)Nc2nc(-c3ccccc3)c(C(=O)c3ccccn3)s2)cc1"
label_class = "criterion not met"

[[record]]
entry_smiles = "CCCn1c(=O)c2[nH]c(-c3cc(C)n(CC(=O)Nc4ccc(Cl)cc4)n3)nc2n(CCC)c1=O"
label_class = "criterion not met"

[[record]]
entry_smiles = "C=CCn1c(=O)c2c(nc3cc(OC)ccn32)n(Cc2ccccc2)c1=O"
label_class = "criterion met"

[[record]]
entry_smiles = "N#Cc1c(N)nc(SCc2cccc(C(N)=O)c2)c(C#N)c1-c1ccco1"
label_class = "criterion not met"

[[record]]
entry_smiles = "CCCn1c(=O)c2[nH]c(-c3cnn(Cc4nc(-c5ccc(C)cc5)no4)c3)nc2n(CCC)c1=O"
label_class = "criterion not met"


###

Recorded Ki for compounds tested on the protein given by its sequence, drawn from a number of studies.
Target sequence: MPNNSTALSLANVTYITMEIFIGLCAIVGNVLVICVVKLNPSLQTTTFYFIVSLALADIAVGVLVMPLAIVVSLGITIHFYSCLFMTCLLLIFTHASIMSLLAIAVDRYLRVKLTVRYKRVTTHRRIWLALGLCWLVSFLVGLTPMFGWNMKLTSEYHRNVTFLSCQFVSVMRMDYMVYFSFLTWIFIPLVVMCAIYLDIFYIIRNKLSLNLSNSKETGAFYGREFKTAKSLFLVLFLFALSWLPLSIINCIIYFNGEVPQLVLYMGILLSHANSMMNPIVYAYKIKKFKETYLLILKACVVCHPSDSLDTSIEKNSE
Measurement label: Ki

[[record]]
entry_smiles = "c1ccc(Nc2nc3c(N4CCNCC4)ncnc3s2)cc1"
experimental_result = "> 10 µM"

[[record]]
entry_smiles = "COc1cccc(-c2cn3c(=O)n(-c4ccccc4)nc3c(=O)[nH]2)c1"
experimental_result = "> 30 µM"

[[record]]
entry_smiles = "Nc1ncnc2c1nc(Br)n2C1CCCCCC1"
experimental_result = "> 100 µM"


###

Recorded log10(Ki) for compounds tested on the protein given by its sequence, drawn from a number of studies.
Target protein (sequence): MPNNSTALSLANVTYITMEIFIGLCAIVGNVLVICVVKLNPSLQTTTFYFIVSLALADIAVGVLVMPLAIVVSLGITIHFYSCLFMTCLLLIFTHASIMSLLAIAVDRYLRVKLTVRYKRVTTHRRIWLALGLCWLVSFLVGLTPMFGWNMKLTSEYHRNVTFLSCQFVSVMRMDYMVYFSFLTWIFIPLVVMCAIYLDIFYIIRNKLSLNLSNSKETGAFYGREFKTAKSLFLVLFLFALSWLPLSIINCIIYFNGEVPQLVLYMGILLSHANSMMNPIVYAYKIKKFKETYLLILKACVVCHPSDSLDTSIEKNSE
Measurement label: log10(Ki) (log10 of the value in µM)

[[record]]
compound = "COc1ccccc1Cn1cc2nc(-c3ccc(C)o3)nc(N)c2n1"
experimental_result = -1.09

[[record]]
compound = "Cc1ccc(-c2nc(N)c3nc(-c4ccco4)sc3n2)o1"
experimental_result = -1.86

[[record]]
compound = "CC(C)NC(=O)[C@H]1OC(n2cnc3c(N)ncnc32)[C@H](O)[C@@H]1O (some centres undefined)"
experimental_result = -0.68

[[record]]
compound = "Nc1nc(NCCc2ccc(S(N)(=O)=O)cc2)nc2sc(-c3ccco3)nc12"
experimental_result = 0.27

[[record]]
compound = "OCCNc1nc2ccccc2n2nc(-c3ccco3)nc12"
experimental_result = -1.52

[[record]]
compound = "CCn1c(=O)c2[nH]c(-c3ccc(OCC(=O)Nc4ccon4)cc3)nc2n(CCCOC)c1=O"
experimental_result = -0.03

[[record]]
compound = "Cc1ccc(C(=O)Nc2nc(Cl)c3cn(C)nc3n2)cc1"
experimental_result = 1.13

[[record]]
compound = "CCOC(=O)c1nc(NC(=O)c2ccc(F)cc2)nc2nn(C(C)C)cc12"
experimental_result = 0.76

[[record]]
compound = "CCn1nnc([C@H]2O[C@@H](n3cnc4c(N)nc(N[C@H](CO)Cc5ccc(OC)cc5)nc43)[C@H](O)[C@@H]2O)n1"
experimental_result = -0.89

[[record]]
compound = "CCNC(=O)[C@H]1OC(n2cnc3c(NCCCCCCCCNc4ccc([N+](=O)[O-])c5nonc45)ncnc32)[C@H](O)[C@@H]1O (some centres undefined)"
experimental_result = -2.13

[[record]]
compound = "CC[C@@H]1CN2C(=O)N(C)c3nc(-c4cc(Cl)cc(Cl)c4Cl)[nH]c3C2=N1"
experimental_result = -3.36

[[record]]
compound = "Cn1cc2c(nc(N=C(Nc3ccccc3)Nc3ccccc3)n3nc(-c4ccco4)nc23)n1"
experimental_result = -1.10

